FYI, the data here is from patent EP4786492A1.

Here the recorded MFI is given for each entry.
- systemTested: mouse DLL3 on CHO-K1-mDLL3 cells (mouse) (UniProt O88516)
- Sequence (O88516 other isoform, or with tags, fused parts or gaps limits assumed): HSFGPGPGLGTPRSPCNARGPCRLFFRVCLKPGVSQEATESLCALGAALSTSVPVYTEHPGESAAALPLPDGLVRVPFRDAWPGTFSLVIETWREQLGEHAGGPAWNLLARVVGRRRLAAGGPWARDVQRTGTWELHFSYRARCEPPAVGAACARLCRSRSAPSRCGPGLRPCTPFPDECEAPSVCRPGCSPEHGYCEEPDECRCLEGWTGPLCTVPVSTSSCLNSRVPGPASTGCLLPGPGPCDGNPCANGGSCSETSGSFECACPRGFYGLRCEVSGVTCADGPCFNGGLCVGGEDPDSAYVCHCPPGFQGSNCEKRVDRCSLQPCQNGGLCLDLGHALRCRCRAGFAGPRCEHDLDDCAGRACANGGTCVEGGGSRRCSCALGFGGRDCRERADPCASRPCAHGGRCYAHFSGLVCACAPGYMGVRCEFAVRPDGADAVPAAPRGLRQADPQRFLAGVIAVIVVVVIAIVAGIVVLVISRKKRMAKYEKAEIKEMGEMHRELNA
- experimentNotes: FACS, CHO-K1-mDLL3 cells, 0.8 nM antibody
The response must be a number in MFI with no trailing unit.

Consider the following illustrative entries.
binder	unitSpec	MFI
Hab015VL4VH1a-hFc (scFv, part only; not given: scFv linker and human IgG1 Fc, V domains shown, not shown: another chain or arm of the molecule; a dimerising Fc or GST; small tags and cut ends) VL: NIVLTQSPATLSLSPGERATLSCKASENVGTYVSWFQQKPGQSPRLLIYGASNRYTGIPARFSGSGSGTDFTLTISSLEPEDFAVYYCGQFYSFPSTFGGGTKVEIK VH: EVQLVESGGGLVKPGGSLRLSCAASGITFSNFWMNWVRQAPGKGLEWVGQIRLKSDDYATHYAESVKGRFTISREDSKNTVYLQMNSLKTEDTAVYYCTTGYYFDYWGQGTTVTVSS	MFI	779
Hab014VL2VH1-hFc (scFv, part only; not given: scFv linker and human IgG1 Fc, V domains shown, not shown: another chain or arm of the molecule; a dimerising Fc or GST; small tags and cut ends) VL: DIQMTQSPSSLSASVGDRVTITCKASEDIYNRLAWYQQKPGKVPKLLISGATSLETGVPSRFSGSGSGKDFTLTISSLQPEDVATYYCQQYWSLPWTFGGGTKVEIK VH: EVQLVQSGAEVKKPGASVKVSCKASGYTFTDYYMNWVRQAPGQRLEWMGDINPNHGDTGYNQKFTGRVTITVDKSASTAYMELSSLRSEDTAVYYCARNFFYYGTTYGWYFDVWGQGTTVTVSS	MFI	272

Q. What does the data say about its MFI? Entry: Hab015VL5VH5a-hFc (scFv, part only; not given: scFv linker and human IgG1 Fc, V domains shown, not shown: another chain or arm of the molecule; a dimerising Fc or GST; small tags and cut ends) VL: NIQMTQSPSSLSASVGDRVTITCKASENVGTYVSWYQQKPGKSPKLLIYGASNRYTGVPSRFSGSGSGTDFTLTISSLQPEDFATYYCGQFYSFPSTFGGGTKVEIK VH: EVQLVESGGGLVKPGGSLRLSCVASGITFSNFWMNWVRQAPGKGLEWVGQIRLKSDDYATHYAESVKGRFTISREDSKNTVYLQMNSLKTEDTAVYYCTTGYYFDYWGQGTTVTVSS
A. 953

Q. Returns the measured MFI for the input binder. Input: Hab015VL5VH1a-hFc (scFv, part only; not given: scFv linker and human IgG1 Fc, V domains shown, not shown: another chain or arm of the molecule; a dimerising Fc or GST; small tags and cut ends) VL: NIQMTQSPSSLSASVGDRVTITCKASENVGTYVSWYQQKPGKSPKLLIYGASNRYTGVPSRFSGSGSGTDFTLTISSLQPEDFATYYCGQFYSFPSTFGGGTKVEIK VH: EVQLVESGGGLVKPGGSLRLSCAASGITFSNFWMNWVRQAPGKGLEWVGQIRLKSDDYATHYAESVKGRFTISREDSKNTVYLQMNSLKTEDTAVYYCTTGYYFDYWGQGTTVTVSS
A. 922
